target under test: DNA topoisomerase 1 (Homo sapiens)
test details: Inhibition of Top1 (unknown origin) assessed as inhibition of relaxation of supercoiled pBR322 plasmid DNA at 12.5 uM incubated for 25 mins by ethidium bromide staining based agarose gel electrophoresis analysis relative to control
Can you tell me inhibition for the items I'm about to list?
One number for each entry, in %.

Consider the following illustrative entries.
[
  {
    "compound": "CC(=O)Oc1ccc2[nH]c3c(c2c1)CCN1C(=O)c2cc(F)cc(F)c2N(c2cccc(F)c2)C31 (stereo not given)",
    "units of measure": "%",
    "inhibition": 56.1
  },
  {
    "compound": "O=C1c2cc(F)cc(F)c2N(c2cccc(F)c2)C2c3[nH]c4ccc(Cl)cc4c3CCN12 (stereo not given)",
    "units of measure": "%",
    "inhibition": 75.4
  },
  {
    "compound": "O=C1c2cc(F)cc(F)c2N(c2cccc(F)c2)C2c3[nH]c4ccc(O)cc4c3CCN12 (stereo not given)",
    "units of measure": "%",
    "inhibition": 43.9
  },
  {
    "compound": "Cc1ccc2[nH]c3c(c2c1)CCN1C(=O)c2cc(F)cc(F)c2N(c2cccc(F)c2)C31 (stereo not given)",
    "units of measure": "%",
    "inhibition": 7.29
  }
]

Note: attention shifts to another entry.
Tell me the measured inhibition of COc1ccc2[nH]c3c(c2c1)CCN1C(=O)c2cc(F)cc(F)c2N(c2cccc(F)c2)C31 (stereo not given) , please.
20.1

* * *

Test system: SK-HEP1
test details: Induction of cell cycle arrest in human SK-Hep1 cells assessed as accumulation at S phase at 80 nM treated for 24 hrs by PI staining based flow cytometry (reference value: 24.98 %)
Type: functional
Kindly state Activity for each of the entries shown.
Numbers only, in %.

For each of the molecules below, note its Activity.
1. CN1c2ccccc2C(=O)N2CCc3c([nH]c4ccccc34)C21 (centres undefined)
2. CC(=O)Oc1ccc2[nH]c3c(c2c1)CCN1C(=O)c2cc(F)cc(F)c2N(c2cccc(F)c2)C31 (centres undefined)
3. CNC(=O)c1cc(Oc2ccc(NC(=O)Nc3ccc(Cl)c(C(F)(F)F)c3)cc2)ccn1 [SORAFENIB]
4. O=C1c2cc(F)cc(F)c2N(c2cccc(F)c2)C2c3[nH]c4ccc(O)cc4c3CCN12 (centres undefined)

1. 36
2. 3.88
3. 34.1
4. 4.5

* * *

test details: Half life in Sprague-Dawley rat at 80 mg/kg, ip measured upto 24 hrs by LC-MS analysis
Type: ADME, organism-based
measurement context: in vivo
observable: half-life (h)
Give bare numbers, in h.

Entry CC(=O)Oc1ccc2[nH]c3c(c2c1)CCN1C(=O)c2cc(F)cc(F)c2N(c2cccc(F)c2)C31 (stereo unspecified) has what half-life?
7.24

* * *

Can you tell me Activity for the items I'm about to list?
Test system: Huh-7
test details: Induction of apoptosis in human Huh-7 cells assessed as early apoptotic cells at 80 nM incubated for 24 hrs by annexin V-FITC/PI staining flow cytometry (reference value: 0.33 %)
Assay type: functional
Numbers only, in %.

See these solved cases before continuing.
[
  {
    "molecule": "O=C1c2cc(F)cc(F)c2N(c2cccc(F)c2)C2c3[nH]c4ccc(O)cc4c3CCN12 (centres undefined)",
    "test value": 1.71
  },
  {
    "molecule": "CNC(=O)c1cc(Oc2ccc(NC(=O)Nc3ccc(Cl)c(C(F)(F)F)c3)cc2)ccn1 [SORAFENIB]",
    "test value": 0.23
  },
  {
    "molecule": "CC(=O)Oc1ccc2[nH]c3c(c2c1)CCN1C(=O)c2cc(F)cc(F)c2N(c2cccc(F)c2)C31 (centres undefined)",
    "test value": 1.1
  }
]

Now look at this entry.
Activity lookup needed for CN1c2ccccc2C(=O)N2CCc3c([nH]c4ccccc34)C21 (centres undefined) , thanks.
0.57
